// data source = patent US20050266014A1

biological target: T1, HLA-A* 0201, on T2 cells (human); assay: peptide binding to empty HLA-A*0201 on T2 cells, staining with fluorescent anti-HLA-A2.1 antibody, FACS
T1 construct: whole, on cells; Empty HLA-A*0201 molecules on T2 cells; also called HLA-A2.1; A* 0201 of human HLA
measurement_type: pKd
Reminder that pKd means the negative base-10 logarithm of the concentration expressed in mol/L.

Query: Any idea what pKd was measured for SLGEQQYSV [WH 187 peptide] ?
Result: 5.12
